# experiment.notes: NCI Yeast Anticancer Drug Screen. Data for the mlh1 rad18 strain (AID 175)
# conditions.used: S. cerevisiae mlh1 rad18 strain growth inhibition; at 50.0 µM; hits give high values
About 79,000 compounds went through this panel and 15% of them were active in at least one assay; those are over-represented in the sample as a whole.

molecule	readout.unit	growth inhibition
O=C1OC2c3ccccc3CC1C2CO (stereo unspecified)	%	-4.45
O=C(/C=C/c1ccccc1)c1ccc(Oc2ccccc2)cc1	%	-14.8
Cc1ncc([N+](=O)[O-])n1CCNS(=O)(=O)CCCn1ccnc1[N+](=O)[O-]	%	-58.7
CCN(CC)CC(OC(C)=O)c1ccc2ccc3ccc(O)cc3c2c1 (stereo unspecified)	%	19.1
O=C(CC(=O)N1N=C(n2ccc3ccccc32)CC1c1ccccc1)Nc1ccccc1Cl (stereo unspecified)	%	5.45
CN(C)CCC1(C2=CCCC2)CC/C(=C\c2ccc3c(c2)OCO3)C1=O (stereo unspecified)	%	17.5
Nc1ccc(Cl)cc1Cl	%	-21.3
COC(=O)C1Cc2ccccc2C1=O (stereo unspecified)	%	-6.45
O=C(O)COc1c(Cl)cc(Cl)c2cccnc12	%	-4.45
CC1SC2(C(=O)Nc3ccccc32)N(c2ccc(Cl)cc2)C1=O (stereo unspecified)	%	10.7
CC1(c2cccc3c2C2(O)C=CC4(CCC32)OCCO4)OCCO1 (stereo unspecified)	%	-26

====

# experiment.notes: NCI Yeast Anticancer Drug Screen. Data for the bub3 strain (AID 167)
# conditions.used: S. cerevisiae bub3 mutant strain, at 50.0 µM, hits give high values
# Description: Growth inhibition of yeast strains with defined genetic alterations is measured as a screen for potential anti-cancer activity. Selected strains with alterations in DNA damage repair or cell cycle control were exposed to compounds and growth inhibition was measured relative to vehicle treated controls. The strain used in this assay is bub3
About 79,000 compounds went through this panel and 15% of them were active in at least one assay; those are over-represented in the sample as a whole. The source made the active and inactive calls. No stated cut-off is given here; in the data, active means growth inhibition above about 70%; inactive means the rest.
# growth inhibition per record follows

molecule	growth inhibition
COC1(OC)C=NNc2nccn21	-5.9% (inactive)
CCNC(=O)Nc1nc2ccccc2s1	-23.8% (inactive)
N/C(=N\N=C\c1c[nH]c2cc(C(F)(F)F)ccc2c1=O)NO	2.9% (inactive)
Nc1ccc(S(=O)(=O)S(=O)(=O)c2ccc(N)cc2)cc1	-0.9% (inactive)
Cc1cc2nc(Oc3ccccc3)nc(=O)n2o1	11.8% (inactive)
Cc1cc2c(c(C(C)(C)C)c1)OC(=O)/C2=C1/C(=O)Oc2c1cc(C)cc2C(C)(C)C	2.3% (inactive)
CCC1(CC)CC(=O)NC1=O	-26% (inactive)
COc1cc(C=C2C(=O)NC(=O)NC2=O)ccc1OCc1ccccc1	-22.3% (inactive)
NC(CC(=O)Nc1ccc(Cl)cc1)=Nc1ccccc1	-14.4% (inactive)
CC(O)CN1c2ccccc2Sc2ccccc21 (stereo unspecified)	-13.8% (inactive)
CC1CC2C3(C1)CC(C(=O)OC3=O)C2(C)C (stereo unspecified)	-2.1% (inactive)
O=C(O)c1ccc([N+](=O)[O-])cc1OCc1ccccc1	-3.4% (inactive)
Cc1c([N+](=O)[O-])cc2c(c1[N+](=O)[O-])C(C(C)C)CCC2(C)C (stereo unspecified)	-40.4% (inactive)
O=C(c1cc(O)c(O)c(O)c1)c1ccc(O)c(O)c1O	14.1% (inactive)
CN1CCCCC1C(O)CO (stereo unspecified)	-3.2% (inactive)
CCN(CC)Cc1cc(N)cc(N=Nc2ccc3c(c2)c2ccccc2n3CC)c1O	-3.4% (inactive)
C[n+]1c(/C=C\c2ccc(O)cc2)cc(C(N)=O)c2ccccc21	3.65% (inactive)
CCN(CC)CCN1C(=O)NC2(CCCCC2)C1=O	10.6% (inactive)
O=C(O)c1c[nH]c2ccc([N+](=O)[O-])cc2c1=O	-14% (inactive)
COc1cc(C)c2c(c1)C=C[C@@H]1[C@@H]2CC[C@]2(C)C(=O)CC[C@@H]12	-0.05% (inactive)
OC1C=CC2CCC1C2 (stereo unspecified)	10.8% (inactive)

====

# experiment.notes: NCI Yeast Anticancer Drug Screen. Data for the mec2-1 strain (AID 157)
# conditions.used: S. cerevisiae mec2-1 strain, at 50.0 µM, hits give high values
Compounds without any hit were thinned out: in the full panel of roughly 79,000, 15% have a hit.
measurement.label: growth inhibition (%)

compound	readout.unit	value.observed
CN(Cc1cnc2nc(N)nc(N)c2n1)c1ccc(C(=O)NC(CCC(=O)NC(CCC(=O)NC(CCC(=O)NC(CCC(=O)O)C(=O)O)C(=O)O)C(=O)O)C(=O)O)cc1 (stereo not given)	%	-19.8
CCN(CC)C1CS(=O)(=O)OC2=C1CSCC2 (stereo not given)	%	19.1
OCc1ccc(F)cc1CO	%	-2.35
O=C(Nc1cccc([N+](=O)[O-])c1)Oc1ccc(-c2ccccc2)cc1	%	36.2
CCN(CC)CCCC(C)Nc1cc(C)nc(Nc2nc3cc(Cl)c(Cl)cc3[nH]2)n1 (stereo not given)	%	94.1
O=C(c1ccccc1)c1ccc2cccc3c2c1CC3	%	14.6
CC1CCC(C(C)C)/C(=N\O)C1 (stereo not given)	%	-19.4
Nc1ccc(C(C(=O)O)c2ccccc2)cc1Cl (stereo not given)	%	-9
O=S=NCCCl	%	-14.6
Nc1nc(Cl)nc(Nc2ccc(-c3cc4ccc(-c5ncc[nH]5)cc4[nH]3)cc2)n1	%	45.5
CC1N=C(SCc2ccc(Cl)cc2)N2C(C)N=C(SCc3ccc(Cl)cc3)N12 (stereo not given)	%	-40
S=C1CC(c2ccc(Cl)cc2)Sc2ccccc2N1 (stereo not given)	%	-5.6
Cc1ccc(C(=O)Oc2ccccc2)cc1N=NN(C)C	%	-49
OCC(CO)(CO)COCC(CO)(CO)CO	%	-25.1
CCOc1ccccc1N(CCN(C)C)C(=O)C(c1ccccc1)c1ccccc1	%	-18.7
CC1C2(C)OC(=N)C(C#N)(C(c3ccccc3)O2)C1(C#N)C#N (stereo not given)	%	-5.15
CS/C(c1ccccc1)=[N+](/C)[O-]	%	16.5
O=C(O)c1ccc([N+](=O)[O-])cc1OCc1ccccc1	%	-5.1
Cc1cc(NC(=S)Nc2ccccc2)c(NC(=S)Nc2ccccc2)cc1C	%	-25.2
NC(=O)C(=O)CC(=O)c1ccccc1NC1=CC(=O)C(=O)c2ccccc21	%	29.1
COc1c(O)ccc(/C=N/NC(=S)NCOCCOC(C)=O)c1OC	%	-3.8
CC(C)COP(C)(=O)C(N)(C(F)(F)F)C(F)(F)F (stereo not given)	%	8
C[N+]1(C)CCCC1	%	5.5
CCC(CC)C(=O)NC(=O)NC	%	-16.5
COC(=O)c1nc(N)nc(C(=O)OC)c1C(=O)c1cccnc1	%	-17.8
Cc1cc(C)c(NC(=O)Nc2cccc(F)c2)c(C)c1	%	11
CCC(C)N=C1NS(=O)(=O)c2ccccc21 (stereo not given)	%	-3.3
O=C(c1ccc(CSc2ccc(Cl)cc2)o1)N1CCOCC1	%	12
O=C1CC(c2ccccc2)Oc2ccccc21 (stereo not given)	%	-58.1
N#CCCCCCCCCC(=O)O	%	-14.4

====

# experiment.notes: NCI Yeast Anticancer Drug Screen. Data for the rad50 strain (AID 155);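 also: 0% = growth of vehicle-only cultures of the same strain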
# conditions.used: S. cerevisiae rad50 strain growth inhibition; at 50.0 µM; hits give high values
About 79,000 compounds went through this panel and 15% of them were active in at least one assay; those are over-represented in the sample as a whole.
# growth inhibition per record follows
measurement.label: growth inhibition (%)

molecule	measurement.label	readout.unit	value.observed
[S-]c1n[n+](-c2ccccc2)c(-c2ccc(Cl)cc2)s1	growth inhibition	%	-2.05
CN(C)C1C(=O)C(C(=O)NCN2CCCC2)=C(O)C2(O)C(=O)C3=C(O)c4c(O)cccc4C(C)(O)C3CC12 (stereo not given)	growth inhibition	%	2.75
CN(C)C(=S)Oc1ccc([N+](=O)[O-])cc1Cl	growth inhibition	%	17.9
CCOC(=O)NC1C2CC3C(C2)C31 (stereo not given)	growth inhibition	%	-54.6
C=CCNC(=O)CC(C)(C)C	growth inhibition	%	25.6
O=C(O)/C(Cl)=C(\Cl)C(=O)NC1C2CC3CC(C2)CC1C3 (stereo not given)	growth inhibition	%	14.4
N#C[C@H](c1nc2ccccc2[nH]1)c1nc2ccccc2nc1Cl	growth inhibition	%	5.5
CCOc1ccc(CCC(=O)O)cc1	growth inhibition	%	3.55
COc1cccc(OC)c1NC(=O)NCCCl	growth inhibition	%	-8.3
COc1ccccc1-n1c(NN)nc2ccc(Br)cc2c1=O	growth inhibition	%	55.6
COc1cccc2c1CCC(=O)C2C (stereo not given)	growth inhibition	%	35.1
COc1ccc2[nH]c3c4c(c(C)cc3c2c1)OC(C)(C)C=C4	growth inhibition	%	16.2
CCN(CC)c1ccccc1-c1ccccc1	growth inhibition	%	34.9
CCC(=O)Nc1cc(Cl)ccc1C	growth inhibition	%	46.6
CCC/C(CC)=N\Nc1ccc([N+](=O)[O-])cc1[N+](=O)[O-]	growth inhibition	%	-6.9
NC(CCS(N)(=O)=O)C(=O)O (stereo not given)	growth inhibition	%	-9.45
CC(=O)OCC1OC(n2c(-c3ccccc3)c(N=Nc3ccccc3)c(C)c(C#N)c2=S)C(OC(C)=O)C(OC(C)=O)C1OC(C)=O (stereo not given)	growth inhibition	%	-14
CC(C)(C)C(=O)Oc1ccc[nH]c1=O	growth inhibition	%	23.4
Cc1nnnn1-c1ccc2ccccc2c1	growth inhibition	%	-24.8
CC(=O)OC1CC[C@@]2(C)C(C1)CC(OC(C)=O)[C@@H]1C2CC(OC(C)=O)[C@]2(C)C(C(C)CC=C(c3ccc(Cl)cc3)c3ccc(Cl)cc3)CCC12 (stereo not given in full)	growth inhibition	%	0.4
Cc1cn(C2CC(NO)C(CO[Si](C)(C)C(C)(C)C)O2)c(=O)[nH]c1=O (stereo not given)	growth inhibition	%	-3.75
CC1CC(C#N)=C(NC#N)NC1=O (stereo not given)	growth inhibition	%	-0.5
CSC1C(=O)Nc2ccc([N+](=O)[O-])cc21 (stereo not given)	growth inhibition	%	-11.6
COC(=O)C1CN(c2ccccc2)CCC1=O (stereo not given)	growth inhibition	%	-28.9
c1ccc(-c2cnc3cccnc3n2)cc1	growth inhibition	%	-2.1
